Target: Heat shock protein HSP 90-alpha (Homo sapiens)
Assay type: functional, organism-based
Active and inactive are the calls of the source.
Collected AC50 values appear next to each entry.
Observation type: AC50

molecule="CCOc1ccc(N2C(=O)/C(=C\\c3ccccc3OC)S(=O)(=O)C2c2cccc([N+](=O)[O-])c2)cc1 (configuration not stated)" endpoint_result="26.2 µM (active)"
molecule=COc1ccc2sc(-c3ccccc3OC)c(-c3ccc(O)cc3)c2c1 endpoint_result="5.35 µM (active)"
molecule=CCOc1ccc2c(ccc(/C=C/c3cc(C)c4cccnc4c3O)[n+]2C)c1 endpoint_result="0.276 µM (active)"
molecule=COCC(=O)n1nc(NCc2ccc(OC)cc2)nc1NCc1ccc(OC)cc1 endpoint_result="8.12 µM (active)"
molecule=Cc1cccc(C)c1OCC(=O)NNC(=S)NC(=O)C1CC1 endpoint_result="1.15 µM (active)"
molecule=O=C/C(=N\Nc1ccccc1)C(=O)c1ccc(Cl)cc1 endpoint_result="3.15 µM (active)"
molecule=COc1cc(/C=C/[N+](=O)[O-])ccc1OC(=O)c1cccnc1 endpoint_result="4.36 µM (active)"
